So I've got a bunch of sequences here, and I need their pre-steady-state target cleavage rate values.
tested on: MILI (PIWIL2) piRISC loaded with L1MC piRNA (26 nt); test: pre-steady-state target cleavage rate (min^-1); guide: L1MC piRNA 5'p-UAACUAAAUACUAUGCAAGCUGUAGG; higher = faster piRNA-guided slicing of the target; details: auxiliary factor: 500 nM mouse GTSF1;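 further: 1 nM active piRISC with 0.1 nM target library at 33 °C single turnover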

Enquiry: Recorded pre-steady-state target cleavage rate for UCCUGGAAGUGCUUGCAUAGUAUUUAGUAA , please?
Return: 0.136

Enquiry: UCCUGCUACAGCUUGCAUAGAUUUAGUUA , same question.
Return: 0.00937

Enquiry: UCCUGGAUGUCUUUGCAUAGUAUUUAGUUA , same question.
Return: 0.119

Enquiry: UCCUGGAUGUCGUUGCAUAGUAUUUAGUCA , same question.
Return: 0.146

Enquiry: UCCUGCAUGAGCUUGCAUAGUAUUUACAAA , same question.
Return: 0.0926

Enquiry: UCCUGGAAUAGCUUGCAUAGUAUUUAGUUA , same question.
Return: 0.221

Enquiry: UCCUGGUACAGCUUGCAUAGUAAAAAGUUA , same question.
Return: 0.104

Enquiry: UCCUGGAUGUCCUUGCAUAGUAUUCUAGUUA , same question.
Return: 0.1

Enquiry: UCCUGGAACAGCUUGCAUAUGUAUUUAGUUA , same question.
Return: 0.00424

Enquiry: UCCUGGAUGAGCUUGCUAAGUAUUUAGUUA , same question.
Return: 0.0294

Enquiry: UCCUCCUACAGCUUGCAUUGUAUUUUGUUA , same question.
Return: 0.0994

Enquiry: UCCUGGAUCAGCUUGCAUAGUAUUAUCAAA , same question.
Return: 0.0975

Enquiry: UCCUGGAUCAGCUUGCAUAGUAUUGUAGUUA , same question.
Return: 0.176

###

test system: MILI (PIWIL2) piRISC loaded with piRNA #1 (26 nt); experiment: pre-steady-state target cleavage rate (min^-1); guide: piRNA #1 5'p-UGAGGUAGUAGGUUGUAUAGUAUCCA; higher = faster piRNA-guided slicing of the target; conditions: auxiliary factor: 500 nM mouse GTSF1;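 further: 1 nM active piRISC with 0.1 nM target library at 33 °C single turnover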
Assign class by pre-steady-state target cleavage rate: not lower than 0.05 means y; lower than 0.05 means n.

Enquiry: Given GGAGACCUAACUAUACAAGCUAGUACCUCA , state whether its pre-steady-state target cleavage rate is at least 0.05.
Return: y

Enquiry: GGAGACCUAACUGUACAACCUACUACCUCA , same question.
Return: y

Enquiry: GGAGACGAUAGUAUACUACCUACUACCUCA , same question.
Return: y

Enquiry: GGAGACCAUACUUAACAACCUACUACCUCA , same question.
Return: y

Enquiry: GGAGACGAUACUAUACAACCAACUUCCUCA , same question.
Return: n

Enquiry: GGAGACGAUACUAUACAACCUCACUACCUCA , same question.
Return: n

Enquiry: GGAGACCUAUGAUAUGUUCCUACUAGGUCA , same question.
Return: n

Enquiry: GGAGACCAUACUAGUACAACCUACUACCUCA , same question.
Return: y

Enquiry: GGAGACGAUACUAUACAACCUACUACGCUCA , same question.
Return: y

Enquiry: GGAGACGAUACUUUUCAACCUACUACCUCA , same question.
Return: y

Enquiry: GGAGACCUAUGAUAUGAACCUACCUACCUCA , same question.
Return: n

Enquiry: GGAGACCUAAUCUAUACAACCUACUACCUCA , same question.
Return: y

Enquiry: GGAGACCAUACUAUACAAGCUACUACCACA , same question.
Return: y

Enquiry: GGAGACCUUACUAGUACAACCUACUACCUCA , same question.
Return: y

Enquiry: GGAGUCGAUACUAUACAACCUACAACCUCA , same question.
Return: n

Enquiry: GGAGACCUAUCUAUACAAGCUACUUCCUCA , same question.
Return: y

Enquiry: GGAGAGCAAACUAUACAACCUACUACCUCA , same question.
Return: y

Enquiry: GGAGUGGAUACUAUACAAGCUACUUCCUCA , same question.
Return: y

Enquiry: GGAGACCUAUGAUUACAACCUACGACCUCA , same question.
Return: n

Enquiry: GGAGUGGAUACUAUACAACCAACUACCUGA , same question.
Return: n

Enquiry: GGAGUGGAUUCUAUACAACCUACUACCUCA , same question.
Return: y

Enquiry: GGAGACGAUACUAUACAACCUACUGACCUCA , same question.
Return: y

Enquiry: GGAGAGGAUUCUAUACAACCUUCUACCUCA , same question.
Return: n

Enquiry: GGAGACCUUACUAUACACCCUACUACCUCA , same question.
Return: y

Enquiry: GGAGUGGAUACUAUACACCCUACUACCUCA , same question.
Return: y

Enquiry: GGAGUGGAUACUGUACAACCUACUACCUCA , same question.
Return: y

Enquiry: GGAGACCAUACUAUACAACCUACUACCUACA , same question.
Return: y

Enquiry: GGAGAGGAUACUAUACAACCUACUACCUCG [g2:g25:cont:t1G] , same question.
Return: y

Enquiry: GGAGACCUAUGAUAUCAUCCUACAACCUCA , same question.
Return: n

Enquiry: GGAGUGGAUACUAUACAACCUACUAACCUCA , same question.
Return: y

Enquiry: GGAGACCAUACUAAACAACCUACUACCACA , same question.
Return: y

Enquiry: GGAGACCUAUCUAUACAGCCUACUACCUCA , same question.
Return: n

Enquiry: GGAGUGGAUACUAAACAACCUACAACCUCA , same question.
Return: y

Enquiry: GGAGACCUUACUAUAGAACGUACUACCUCA , same question.
Return: n

Enquiry: GGAGAGCAUUCUAUACAACCUACUACCUCA , same question.
Return: y

Enquiry: GGAGUGGAUACUAUACAAUCUACUACCUCA , same question.
Return: y

Enquiry: GGAGACCUAACUAUACAACCUAGAACCUCA , same question.
Return: n

Enquiry: GGAGACCUAUGUACUACAACCUACUACCUCA , same question.
Return: n

Enquiry: GGAGACCUAUCUAUAGUUCCUACUACCUCA , same question.
Return: n

Enquiry: GGAGACCUUACUAUACAACCUACUACCUUCA , same question.
Return: y

Enquiry: GGAGACCUAACUUUAGAACCUACUACCUCA , same question.
Return: y

Enquiry: GGAGAGGAUACUAUACAACCUACGACCUCA , same question.
Return: y

Enquiry: GGAGACCUAACUAUACAACCUACUGACCUCA , same question.
Return: y

Enquiry: GGAGACCUAUGUAUACAACGAACUACCUCA , same question.
Return: n

Enquiry: GGAGUGGAUACUUUACAACGUACUACCUCA , same question.
Return: n

Enquiry: GGAGACCUAUGAAUACAACGAUGAUGGAGA [g12:g18:cont:t1A] , same question.
Return: n

Enquiry: GGAGACCUAUCUAUACAACCUACAACCACA , same question.
Return: y

Enquiry: GGAGACCUUACUAAACAACCUUCUACCUCA , same question.
Return: n

Enquiry: GGAGACCUAUGUAUACAUCCUACUACCUCA , same question.
Return: y

Enquiry: GGAGACCUAUGAUAUGUUGCUACUACCUA , same question.
Return: n

Enquiry: GGAGAGGAUACUAUACAACCGACUACCUCA , same question.
Return: n

Enquiry: GGAGACCUAACAAUACAACCUACUACCUGA , same question.
Return: y

Enquiry: GGAGACCUAUCUAUUCAACCUACUACCUGA , same question.
Return: y

Enquiry: GGAGAGGAUACAAUACAAGCUACUACCUCA , same question.
Return: y

###

test system: EfPiwi piRISC loaded with L1MC piRNA (26 nt); assay: pre-steady-state target cleavage rate (min^-1); auxiliary factor: 500 nM Ephydatia muelleri Gtsf1; guide: L1MC piRNA 5'p-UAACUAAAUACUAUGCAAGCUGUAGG; MIWI and MILI are mouse PIWI proteins and EfPiwi is from a freshwater sponge; tags in brackets are library labels; higher = faster piRNA-guided slicing of the target
experimental readout: pre-steady-state target cleavage rate
Just the number, please.

Enquiry: Recorded pre-steady-state target cleavage rate for UCCUGGAUCAACUUGCAUAGUAUUUAGUUA , please?
Return: 0.0635

Enquiry: UCCUGGAUCAGCUUGCAUAGCAUUUAGUUA , same question.
Return: 0.00774

Enquiry: UCCUGGAUGAGCUUGCAUAGUAUUUAGUUC [g2:g21:cont:t1C] , same question.
Return: 0.039

Enquiry: UCCUGGAAACAGCUUGCAUAGUAUUUAGUUA , same question.
Return: 0.164

Enquiry: UCCUGGAUCUGCUUGCAUACUAUUUAGUUA , same question.
Return: 0.00859

Enquiry: UCCUCGAACAGCUUGCAUAGUAUUUAGUAA , same question.
Return: 0.0173

Enquiry: UCCUGGAACAGCUUGCAUAGAAUUUAGUAA , same question.
Return: 0.00292

FYI, the data here is from the supplement of paper PMC10338343.
